ASSAY_SYSTEM: Mannose-6-phosphate isomerase (Homo sapiens) (UniProt P34949)
Sequence (P34949 whole entry, looked up): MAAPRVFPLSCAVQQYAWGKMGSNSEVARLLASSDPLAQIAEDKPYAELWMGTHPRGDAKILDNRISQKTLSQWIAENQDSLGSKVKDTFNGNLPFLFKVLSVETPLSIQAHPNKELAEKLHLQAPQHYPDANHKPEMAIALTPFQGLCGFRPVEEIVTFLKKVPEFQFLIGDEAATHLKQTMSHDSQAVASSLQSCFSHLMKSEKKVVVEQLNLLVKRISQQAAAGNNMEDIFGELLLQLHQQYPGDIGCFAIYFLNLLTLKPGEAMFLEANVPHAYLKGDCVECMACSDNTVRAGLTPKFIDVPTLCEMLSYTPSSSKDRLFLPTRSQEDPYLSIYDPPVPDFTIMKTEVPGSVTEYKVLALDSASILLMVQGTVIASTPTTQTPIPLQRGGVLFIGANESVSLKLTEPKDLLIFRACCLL
ASSAY_TEXT: MPI enzyme activity enhancement – biochemical, fluorescence intensity, near-Km mannose 6-phosphate, primary screen (AID 1214)
TEST_PARAMETERS: purified human PMI, coupled resazurin fluorescence, 20 min; at 20 µM; hits give high values; 1 = vehicle control, 0 substrate-free wells
About 10 (0.005%) of roughly 190,000 compounds were called active. Only a sample is shown.
ENDPOINT: activation factor
Give bare numbers.

Sample answers from the record:
[
  {
    "COMPOUND": "O=C(CCC1CCCN(C(=O)Cc2ccc(F)cc2)C1)N1CCN(c2ccccn2)CC1 (stereo not given)",
    "activation factor": 1
  },
  {
    "COMPOUND": "CCN(C(=O)COC(=O)c1ccc(COc2ccc3c(C)cc(=O)oc3c2)cc1)C1CCS(=O)(=O)C1 (stereo not given)",
    "activation factor": 1
  }
]

Could you tell me activation factor for each of these compounds? They are listed below.
1. CC(/C=C/C1(O)C(C)CC(=O)CC1(C)C)OC1OC(CO)C(O)C(O)C1O (stereo not given)
2. Cc1cccc(NC(=O)/C=C/c2ccc3c(c2)OCO3)n1
3. CC(C)CC(=O)NC(=S)NNC(=O)c1cccc([N+](=O)[O-])c1

## Output
[0.9, 0.9, 0.9]

----------
ASSAY_SYSTEM: Mannose-6-phosphate isomerase (Homo sapiens) (UniProt P34949)
ASSAY_TEXT: MPI enzyme activity enhancement – biochemical, fluorescence intensity, near-Km mannose 6-phosphate, primary screen (AID 1214)
TEST_PARAMETERS: purified human PMI, coupled resazurin fluorescence, 20 min; at 20 µM; hits give high values; 1 = vehicle control, 0 substrate-free wells
Screen size: about 190,000 compounds; about 10 (0.005%) were called active. Only a sample is shown.
Lab note: compare activation factor against 1. Equal or greater, write t. Smaller, write f.

## Input Could you please find out whether CC1=CC(=C(C#N)c2nc3ccccc3s2)C=C(C)N1c1ccc(F)cc1F has activation factor that meets 1 or exceeds it?
## Output f

## Input Could you please find out whether COc1ccc(OCC(O)CNC(=O)Nc2ccc(Cl)cc2)cc1 (stereo not drawn) has activation factor that meets 1 or exceeds it?
## Output f

## Input Could you please find out whether Cc1cc(C#N)c(SCC(N)=O)nc1-c1ccc(F)cc1 has activation factor that meets 1 or exceeds it?
## Output t

----------
ASSAY_SYSTEM: Mannose-6-phosphate isomerase (Homo sapiens) (UniProt P34949)
ASSAY_TEXT: MPI enzyme activity enhancement – biochemical, fluorescence intensity, near-Km mannose 6-phosphate, primary screen (AID 1214)
TEST_PARAMETERS: purified human PMI, coupled resazurin fluorescence, 20 min; at 20 µM; hits give high values; 1 = vehicle control, 0 substrate-free wells
In all, about 190,000 compounds went through this assay and about 10 (0.005%) were called active. A selection follows.
Exercise: for every item that follows, state its recorded activation factor.
One number for each entry.

Sample answers from the record:
[
  {
    "COMPOUND": "Cc1ccc(-c2nn(-c3ccccc3)cc2/C=C/C(=O)Nc2cccc(S(N)(=O)=O)c2)cc1",
    "ASSAY_SYSTEM": "Mannose-6-phosphate isomerase (Homo sapiens) (UniProt P34949)",
    "ENDPOINT": "activation factor",
    "RECORDED_NUMBER": 0.9
  },
  {
    "COMPOUND": "O=C(CSc1ccccc1)Nc1nnc(/C=C/c2ccccc2)s1",
    "ASSAY_SYSTEM": "Mannose-6-phosphate isomerase (Homo sapiens) (UniProt P34949)",
    "ENDPOINT": "activation factor",
    "RECORDED_NUMBER": 0.9
  },
  {
    "COMPOUND": "O=C(Cc1cccs1)N(CC1CCCO1)C1(C(=O)NC2CCCCC2)CCCCC1 (centres undefined)",
    "ASSAY_SYSTEM": "Mannose-6-phosphate isomerase (Homo sapiens) (UniProt P34949)",
    "ENDPOINT": "activation factor",
    "RECORDED_NUMBER": 1.1
  },
  {
    "COMPOUND": "COc1cccc(CC2(CO)CCCN(CC3=Cc4cc(OC)ccc4OC3)C2)c1 (centres undefined)",
    "ASSAY_SYSTEM": "Mannose-6-phosphate isomerase (Homo sapiens) (UniProt P34949)",
    "ENDPOINT": "activation factor",
    "RECORDED_NUMBER": 0.9
  },
  {
    "COMPOUND": "CCOc1ccc(C(C)=O)cc1CSc1nnc(-c2ccncc2)n1CCOC",
    "ASSAY_SYSTEM": "Mannose-6-phosphate isomerase (Homo sapiens) (UniProt P34949)",
    "ENDPOINT": "activation factor",
    "RECORDED_NUMBER": 1.1
  },
  {
    "COMPOUND": "COc1cc(/C=C/C(=O)N2c3ccccc3Sc3ccc(C(F)(F)F)cc32)cc(OC)c1OC",
    "ASSAY_SYSTEM": "Mannose-6-phosphate isomerase (Homo sapiens) (UniProt P34949)",
    "ENDPOINT": "activation factor",
    "RECORDED_NUMBER": 0.9
  },
  {
    "COMPOUND": "CCN(C(=O)COC(=O)c1cc(NS(=O)(=O)c2ccc(Cl)c([N+](=O)[O-])c2)ccc1O)C1CCCCC1",
    "ASSAY_SYSTEM": "Mannose-6-phosphate isomerase (Homo sapiens) (UniProt P34949)",
    "ENDPOINT": "activation factor",
    "RECORDED_NUMBER": 0.8
  },
  {
    "COMPOUND": "COC(=O)c1ccc(NC(=O)CSc2nncc3ccc(OC)c(OC)c23)cc1",
    "ASSAY_SYSTEM": "Mannose-6-phosphate isomerase (Homo sapiens) (UniProt P34949)",
    "ENDPOINT": "activation factor",
    "RECORDED_NUMBER": 1
  },
  {
    "COMPOUND": "CC(C)Oc1ccc(/C=C(\\NC(=O)/C=C/c2ccco2)C(=O)NCCc2nc3ccccc3[nH]2)cc1",
    "ASSAY_SYSTEM": "Mannose-6-phosphate isomerase (Homo sapiens) (UniProt P34949)",
    "ENDPOINT": "activation factor",
    "RECORDED_NUMBER": 0.9
  },
  {
    "COMPOUND": "O=C(OCC1O[C@@H](OC(=O)c2cc(O)c(O)c(O)c2)[C@@H](OC(=O)c2cc(O)c(O)c(O)c2)[C@@H](OC(=O)c2cc(O)c(O)c(O)c2)[C@@H]1OC(=O)c1cc(O)c(O)c(O)c1)c1cc(O)c(O)c(O)c1 (some centres undefined)",
    "ASSAY_SYSTEM": "Mannose-6-phosphate isomerase (Homo sapiens) (UniProt P34949)",
    "ENDPOINT": "activation factor",
    "RECORDED_NUMBER": 0.4
  }
]

Could you tell me activation factor for each of these compounds? They are listed below.
1. C/C(N)=C(/C#N)C(=O)COC(=O)CNS(=O)(=O)c1ccc(C)cc1
2. CCC(C(=O)Nc1ccc(C(C)C)cc1)c1ccccc1 (centres undefined)
3. Cc1ccc(-n2cc(CN(C)Cc3nccn3C)c(-c3cccc(C)c3)n2)cc1
4. COc1ccc(NC(=S)N2CCCC(CO)C2)c(OC)c1 (centres undefined)
5. CC/C(O)=C1\C(=O)CC(C)(C)CC1=NCCc1nc2ccccc2[nH]1
6. COc1ccc(CCNC(=O)c2ccc(CS(=O)(=O)c3ccc(Br)cc3)o2)cc1OC
7. O=C(CN1CCCC1)N1CCN(c2ccccc2)CC1

## Output
[1, 1, 0.8, 1, 1.1, 1, 0.8]

Could you tell me activation factor for each of these compounds? They are listed below.
1. COc1cc(/C=N/NC(=O)CCc2n[nH]c(=O)[nH]c2=O)ccc1O
2. CCN(CC)S(=O)(=O)c1ccc(N2CCOCC2)c(NC(=O)C2COc3ccccc3O2)c1 (centres undefined)

## Output
1: 0.9; 2: 1

----------
Exercise: for every item that follows, state its recorded activation factor.
ASSAY_SYSTEM: Mannose-6-phosphate isomerase (Homo sapiens)
ASSAY_TEXT: MPI enzyme activity enhancement – biochemical, fluorescence intensity, near-Km mannose 6-phosphate, primary screen (AID 1214)
TEST_PARAMETERS: purified human PMI, coupled resazurin fluorescence, 20 min; at 20 µM; hits give high values; 1 = vehicle control, 0 substrate-free wells
Hit rate of the full screen: of about 190,000 compounds, about 10 (0.005%) were called active. Only a sample is shown.
Answers are plain numbers.

Could you tell me activation factor for each of these compounds? They are listed below.
1. CCC(C)NC(=O)c1nn(C)c(=O)c2ccccc12 (stereo not drawn)
2. COc1cc(CNCCN(C)C)ccc1OCc1c(F)cccc1Cl

## Output
1: 1.1; 2: 1

----------
ASSAY_SYSTEM: Mannose-6-phosphate isomerase (Homo sapiens) (UniProt P34949)
ASSAY_TEXT: MPI enzyme activity enhancement – biochemical, fluorescence intensity, near-Km mannose 6-phosphate, primary screen (AID 1214)
TEST_PARAMETERS: purified human PMI, coupled resazurin fluorescence, 20 min; at 20 µM; hits give high values; 1 = vehicle control, 0 substrate-free wells
The campaign covered roughly 190,000 compounds. About 10 (0.005%) were called active. The list is a sample of the results.
Lab note: compare activation factor against 1. Equal or greater, write 1. Smaller, write 0.

## Input Could you please find out whether CCOCCCNCc1ccc(OCc2ccc(F)cc2)c(OC)c1 has activation factor that meets 1 or exceeds it?
## Output 0

## Input Could you please find out whether O=Cc1ccc(OCc2cn3ccccc3n2)cc1 has activation factor that meets 1 or exceeds it?
## Output 1

## Input Could you please find out whether CC(C)[C@H](NC(=O)c1ccc(F)cc1)C(=O)OCC(=O)NC(=O)c1cccn1C has activation factor that meets 1 or exceeds it?
## Output 0

## Input Could you please find out whether COc1ccc(Cl)cc1NC(=O)C(C)N1CCc2ccccc21 (configuration not stated) has activation factor that meets 1 or exceeds it?
## Output 1

## Input Could you please find out whether O=C(NCCCNc1ccc([N+](=O)[O-])cc1Cl)c1ccccc1F has activation factor that meets 1 or exceeds it?
## Output 1

Data provenance: PubChem BioAssay AID1214
